protocol: nonspecific effects on YFP-HEK293 ionomycin response – cell-based, parental YFP-HEK293, YFP quench, counter-screen for TMEM16A inhibitor project (AID 652233);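 further: ratio is mean of duplicate wells from kinetic YFP trace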
details: parental YFP-HEK293, iodide YFP quench, at 10 µM
Screen size: about 2,300 compounds; fewer than 10 were called active. These entries were drawn from the full list.
reported_property: YFP ratio F(max-min)/F0
Could you respond with only the numeric value?

What measured YFP ratio F(max-min)/F0 goes with CC(C)(C)C(=O)/C(C#N)=C/c1ccc(O)cc1 ? -1.08

# get_value(readout='YFP ratio F(max-min)/F0', item= O=c1cc(C(F)(F)F)[nH]c(=O)n1C1CCCCC1 ) -1.23

What does the data say about its YFP ratio F(max-min)/F0? Entry: CCC(=O)Nc1ccc2nc(C)n(Cc3ccccc3Cl)c(=O)c2c1 -1.04

Fill blank: measured YFP ratio F(max-min)/F0 of the molecule COc1ccc2[nH]cc(/C=C(/C#N)S(=O)(=O)c3ccccc3)c2c1 is ____. -1.14

I am curious: what YFP ratio F(max-min)/F0 value has been reported for COC(=O)c1ccc(NC(=O)c2ccccc2NS(=O)(=O)c2ccccc2)cc1 ? -0.979

Look at this molecule and give its reported YFP ratio F(max-min)/F0. CCn1nccc1C(=O)Nc1ccc(S(=O)(=O)NC23CC4CC(CC(C4)C2)C3)cc1 -1.03

Returns the measured YFP ratio F(max-min)/F0 for the input molecule. Input: S=C(NCc1cccs1)Nc1ccc(Cl)cc1 -1.2

Quick check: YFP ratio F(max-min)/F0 of Cn1c(=O)n(C)c2cc(S(=O)(=O)N3CCCc4ccccc43)ccc21 ? -1.35
